conditions: in DMF, 308.15 K
measured_parameter: solubility (mole fraction)
Give only the figure.

Inquiry: I am curious: what solubility (mole fraction) value has been reported for NC(=O)N1c2ccccc2CC(=O)c2ccccc21 ?
Reply text: 0.0193

====

conditions: in NMP, 288.15 K
measured_parameter: solubility (mole fraction)
Give only the figure.

Inquiry: I am curious: what solubility (mole fraction) value has been reported for NC(=O)N1c2ccccc2CC(=O)c2ccccc21 ?
Reply text: 0.0346

====

details: in water, 308.15 K
measured_parameter: solubility (mole fraction)

Inquiry: I am curious: what solubility (mole fraction) value has been reported for NC(=O)N1c2ccccc2CC(=O)c2ccccc21 ?
Reply text: 7.2e-06
